biological target: Bromodomain-containing protein 3 (Homo sapiens); experiment: Binding affinity to human His6-tagged BRD3 bromodomain 1 (P24 to E144 residues) expressed in Escherichia coli BL21(DE3) cells at 200 uM incubated for 30 mins by SYPRO orange staining based fluorescence thermal shift assay
Hi! Just check whether ΔTm is below 6 °C. Below gives 1 (yes), equal or above gives 0 (no).

>>> category_label("CCN1C(=O)c2cccc3c(NS(=O)(=O)c4cc(Br)ccc4OC)ccc1c23")
"0 (no)"
>>> category_label("CCN1C(=O)c2cccc3c(S(=O)(=O)Nc4ccc(F)cc4)ccc1c23")
"1 (yes)"
>>> category_label("CCOC(=O)Nc1cc(-c2ccc(C)c(NS(C)(=O)=O)c2)nn2c(C)nnc12")
"0 (no)"
>>> category_label("CCN1C(=O)c2cccc3c(NS(=O)(=O)c4cc(Cl)ccc4OC)ccc1c23")
"0 (no)"
>>> category_label("COc1ccc(CCc2nc3cc(-c4c(C)noc4C)ccc3n2C[C@H](C)N2CCOCC2)cc1Cl")
"1 (yes)"
>>> category_label("CCN1C(=O)c2cccc3c(S(=O)(=O)NC4CCCCC4)ccc1c23")
"0 (no)"
>>> category_label("CCN1C(=O)c2cccc3c(S(=O)(=O)NCC4CCN(C(C)=O)CC4)ccc1c23")
"1 (yes)"
>>> category_label("CCN1C(=O)c2cccc3c(NS(=O)(=O)C4CCCCC4)ccc1c23")
"0 (no)"
>>> category_label("CCN1C(=O)c2cccc3c(NS(=O)(=O)c4ccc(F)cc4F)ccc1c23")
"0 (no)"
